tested on: Mus musculus; test: Analgesic activity in sc dosed Swiss-Webster mouse after 30 mins; type: functional; settings: 0.5 h
observation.type: ED50

Illustrative cases are given below, each with its answer.
| given.smiles | result |
| --- | --- |
| CC(=O)Oc1ccc2c(c1)[C@@]13CCCC[C@H]1[C@@H](C2)N(CCCc1cccc(N2C(=O)C=CC2=O)c1)CC3 | > 100 mg/kg |
| O=C1C=CC(=O)N1c1ccccc1CCN1CC[C@]23CCCC[C@H]2[C@H]1Cc1ccc(O)cc13 | > 100 mg/kg |
| CCOC(=O)CCC(=O)Nc1ccccc1CCCN1CC[C@]23CCCC[C@H]2[C@H]1Cc1ccc(O)cc13 | > 100 mg/kg |
| O=C(CBr)Nc1ccccc1CCCN1CC[C@]23CCCC[C@H]2[C@H]1Cc1ccc(O)cc13 | > 100 mg/kg |
| O=C1C=CC(=O)N1c1cccc(CCCN2CC[C@]34CCCC[C@H]3[C@H]2Cc2ccc(O)cc24)c1 | > 50 mg/kg |

Query: Indicate the recorded ED50 value for this molecule: `CC(=O)Oc1ccc2c(c1)[C@@]13CCCC[C@H]1[C@@H](C2)N(CCCc1ccc(N2C(=O)C=CC2=O)cc1)CC3`
Reply: > 50 mg/kg

Query: Give the measured ED50 for `CCOC(=O)/C=C\C(=O)Nc1ccccc1CCCN1CC[C@]23CCCC[C@H]2[C@H]1Cc1ccc(O)cc13`
Reply: > 100 mg/kg
